These entries and their values trace back to paper PMC12377726.

Listing of recorded Kd by entry.
# SYSTEM TESTED: eOD-GT8 (engineered outer domain germline-targeting version 8), monomer (HIV-1 gp120 engineered outer domain, …)
# MEASUREMENT PROTOCOL: SPR
# CONDITION PARAMETERS: both partners purified
Answer in nM, number only, no unit symbol.

1) G001_LD_07A_VRC01c_58 (antibody, V domains shown, also called G001-58) VH: QVQLVQSGAEVRKPGASVKVSCKASGYTFTDYYIHWVRQAPGQGLEWMGWINPNSGGTNYAQKFQGWVTMTRDTSISTAHMELRRLRSDDRAVYYCARGVVHSGFEFGYWGQGTLVTVSS VL: DIQMTQSPSTLSASVGDRVTITCRASQSISNWLAWYQQKPGKAPKLLIYKASSLESGVPSRFSGSGSGTEFTLTISSLQPDDFATYYCQQYETFGQGTKVEIK
0.437

Query string: Record request: Kd value, item G001_LD_07A_VRC01c_59 (antibody, V domains shown, also called G001-59) VH: QVQLVQSGAEVKKPGTSVKVSCKASEYTFTGYYVHWVRQAPGQGLEWMGWINPNSGGTNYAQKFQGWVTMTRDTSISTAYMELSRLKSDDTAVYYCARSDYISSWYFGYWGQGTLVTVSS VL: EIVMTQSPATLSVSPGERATLSCRASQSVSSNLAWYQQKPGQAPRLLIYGTSTRATGIPARFSGSGSGTEFTLTISSLQSEDFAVYYCQQYETFGQGTKVEIK
Result string: 1.76

Query string: Entry G001_gp1_V10_VRC01c_2021-0087 (antibody, V domains shown, also called G001-0087) VH: QVQLVQSGAEVKKPGASVKVSCKASGYTFTGNYIHWVRQAPGQGLEWVGWLNPNSGGTNYAQQFQGRVTMTRDTSISTAYMELNRLRSDDTAVFYCARGLWQWEFRYWGQGTLVTVSS VL: DIVLTQSPGTLSLSPGERATLSCRASQSVSSSNLAWYQQKPGQAPRLLIYGASSRATGIPDRFSGSGSGTDFTLTISRLEPEDCAVYYCQQYEGFGGGTKVEIK please
Result string: 0.15

Query string: Quick one: G001_gp1_V10_VRC01c_179 (antibody, V domains shown, also called G001-179) VH: QVQLVQSGADVKKPGASVKVSCKASGYTFTDYYMHWVRQAPGQGLEWMGWINPNSGGTNYAQKFQDRVTMTRDTSVSTAYMEVSGLRSDDTAVYYCARIKLCNGGSCNWSLGYWGQGSLVTVSS VL: DIQMTQSPSSLSASVGDRVTITCQASQDISNYLNWYQQKPGKAPKLLIYGASNLETGVPSRFSGSGSGTDFTFTISSLQPEDIATYYCQQYEFFGPGTKVDIK
Result string: 0.13
